# Tested on: human neutrophils
# assay-name: Inhibition of C5a induced degranulation (MPO release)
# Format: cell-based
# condition-set: FIG. 7A; challenge 0.4 nM C5a
quantity-name: IC50
Express your answer as a number followed by its unit.

Any idea what its IC50 is? The compound is `CN[C@@H](Cc1ccccc1)C(=O)N[C@@H](CCCCN)C(=O)N1CCC[C@H]1C(=O)N[C@H](CC1CCCCC1)C(=O)N[C@@H](Cc1c[nH]c2ccccc12)C(=O)N[C@H](CCCNC(=N)N)C(=O)O` 0.1 µM

---

# tested-on: C5a receptor (Homo sapiens, UniProt P21730)
# Construct: followed by a 20 μL aliquot of neutrophil membrane; endogenous in cells
# Sequence (P21730 1-350): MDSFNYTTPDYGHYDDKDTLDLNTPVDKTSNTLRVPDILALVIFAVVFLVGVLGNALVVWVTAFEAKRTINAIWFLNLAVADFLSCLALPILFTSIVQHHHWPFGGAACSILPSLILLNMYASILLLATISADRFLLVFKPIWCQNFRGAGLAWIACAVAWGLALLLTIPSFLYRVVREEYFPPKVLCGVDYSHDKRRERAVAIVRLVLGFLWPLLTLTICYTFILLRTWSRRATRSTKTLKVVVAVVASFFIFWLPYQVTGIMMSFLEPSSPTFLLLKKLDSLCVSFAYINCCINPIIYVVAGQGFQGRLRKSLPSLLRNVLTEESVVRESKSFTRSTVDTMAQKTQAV
# assay-name: Competition binding against 125I-labeled intact C5a on human neutrophil (PMN) membranes
# condition-set: Table II; human neutrophil membranes, competition against 125I-C5a; read-out: Binding IC50
Non-standard residues stand in square brackets, D forms with d. Residues, ends and D or L forms follow the SMILES beside them. 1Nal = N[C@@H](Cc1cccc2ccccc12)C(=O)O; NMeF = CN[C@@H](Cc1ccccc1)C(=O)O; Cha = N[C@@H](CC1CCCCC1)C(=O)O; dCha = N[C@H](CC1CCCCC1)C(=O)O
Could you please report measured IC50 for the items listed next?
Answers are plain numbers, in nM.

Any idea what its IC50 is? The compound is CN[C@@H](Cc1ccccc1)C(=O)N[C@@H](CCCCN)C(=O)N1CCC[C@H]1C(=O)N[C@H](CC1CCCCC1)C(=O)N[C@@H](Cc1cccc2ccccc12)C(=O)N[C@H](CCCNC(=N)N)C(=O)O [C061] (H-[NMeF]KP[dCha][1Nal][dR]-OH) 80

Any idea what its IC50 is? The compound is CN[C@@H](Cc1ccccc1)C(=O)N[C@@H](CCCCN)C(=O)N1CCC[C@H]1C(=O)N[C@H](CC1CCCCC1)C(=O)N[C@@H](Cc1ccccc1)C(=O)N[C@H](CCCNC(=N)N)C(=O)O [C026, NMeF--K--P-dCha-F-dR] (H-[NMeF]KP[dCha]F[dR]-OH) 50

Any idea what its IC50 is? The compound is CN[C@@H](Cc1ccccc1)C(=O)N[C@@H](CCCCN)C(=O)N1CCC[C@H]1C(=O)N[C@H](CC1CCCCC1)C(=O)N[C@@H](CC1CCCCC1)C(=O)N[C@H](CCCNC(=N)N)C(=O)O [C028, MePhe Lys Pro dCha Cha dArg] (H-[NMeF]KP[dCha][Cha][dR]-OH) 25

Consider the record given below.
Any idea what its IC50 is? The compound is CN[C@@H](Cc1ccccc1)C(=O)N[C@@H](CCCCN)C(=O)N1CCC[C@H]1C(=O)N[C@H](CC1CCCCC1)C(=O)N[C@@H](CC(C)C)C(=O)N[C@H](CCCNC(=N)N)C(=O)O [C068] (H-[NMeF]KP[dCha]L[dR]-OH) 60
